- measurement-target: Vascular endothelial growth factor receptor 1 (Homo sapiens, UniProt P17948)
- Sequence (P17948 whole entry): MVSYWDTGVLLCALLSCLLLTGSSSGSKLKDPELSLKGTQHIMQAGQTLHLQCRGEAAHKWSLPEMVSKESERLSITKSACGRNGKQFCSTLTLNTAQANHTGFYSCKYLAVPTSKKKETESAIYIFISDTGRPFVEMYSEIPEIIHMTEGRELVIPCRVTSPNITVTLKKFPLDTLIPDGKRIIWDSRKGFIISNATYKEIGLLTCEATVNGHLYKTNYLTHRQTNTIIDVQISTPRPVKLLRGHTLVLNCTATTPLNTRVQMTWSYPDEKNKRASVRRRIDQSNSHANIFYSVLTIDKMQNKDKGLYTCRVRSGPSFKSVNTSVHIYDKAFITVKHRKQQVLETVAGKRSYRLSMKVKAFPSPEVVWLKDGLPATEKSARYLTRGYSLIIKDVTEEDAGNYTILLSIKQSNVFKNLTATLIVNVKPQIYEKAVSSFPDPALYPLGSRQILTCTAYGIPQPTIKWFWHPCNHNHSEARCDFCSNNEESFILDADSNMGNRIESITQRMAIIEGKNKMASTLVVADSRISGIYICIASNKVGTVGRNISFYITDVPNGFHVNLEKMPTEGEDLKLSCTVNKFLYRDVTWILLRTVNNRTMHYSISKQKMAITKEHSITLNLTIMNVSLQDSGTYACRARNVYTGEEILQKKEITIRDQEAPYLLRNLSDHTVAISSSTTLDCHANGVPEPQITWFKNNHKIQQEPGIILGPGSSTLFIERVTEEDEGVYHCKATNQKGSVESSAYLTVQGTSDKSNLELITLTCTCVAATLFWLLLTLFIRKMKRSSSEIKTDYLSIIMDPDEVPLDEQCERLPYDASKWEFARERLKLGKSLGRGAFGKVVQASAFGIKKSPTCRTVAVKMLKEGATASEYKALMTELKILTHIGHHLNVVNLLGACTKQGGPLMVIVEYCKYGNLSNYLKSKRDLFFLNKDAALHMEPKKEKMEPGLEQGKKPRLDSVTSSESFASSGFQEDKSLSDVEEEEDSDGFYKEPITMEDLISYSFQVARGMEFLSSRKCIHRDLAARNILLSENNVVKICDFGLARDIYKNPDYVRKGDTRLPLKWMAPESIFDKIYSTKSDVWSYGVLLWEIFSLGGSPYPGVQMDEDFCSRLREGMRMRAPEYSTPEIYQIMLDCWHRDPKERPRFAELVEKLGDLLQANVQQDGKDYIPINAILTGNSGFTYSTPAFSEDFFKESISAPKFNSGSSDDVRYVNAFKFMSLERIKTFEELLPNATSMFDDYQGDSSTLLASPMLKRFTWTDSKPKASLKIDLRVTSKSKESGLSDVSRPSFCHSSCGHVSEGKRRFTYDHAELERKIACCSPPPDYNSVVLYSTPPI
readout: pIC50
Schema: pIC50 number; meaning minus log10 of the concentration expressed in molar units.

In: Look up pIC50 for this molecule: `C[C@H](NC(=O)c1cc(-c2cnn(C3CCOCC3)c2)cnc1N)c1c(Cl)ccc(F)c1Cl`
Out: 5.09
